- Tested on: SiHa cells
- METHOD SUMMARY: IC50 assay (inhibition of proliferation, 4 h exposure, SRB)
- ASSAY CONDITIONS: SiHa, oxic
Parameter PCR oxic (IC50 at pHe 7.4/IC50 at pHe 6.5): see the listing below.
VALUE KIND: PCR oxic (IC50 at pHe 7.4/IC50 at pHe 6.5)

MOLECULE: [O-][n+]1nc(CCCN2CCOCC2)[n+]([O-])c2cc3c(cc21)CCC3 [Compound 2, SN30000, reference compound]
COMPARATOR: =
NUMBER: 1.15

MOLECULE: COC(=O)CCNc1n[n+]([O-])c2cc3c(cc2[n+]1[O-])CCC3 [Compound 10b]
COMPARATOR: =
NUMBER: 1.20

MOLECULE: Cc1ccc2c(c1)[n+]([O-])nc(CCC(=O)O)[n+]2[O-]
COMPARATOR: >
NUMBER: 6.7

MOLECULE: COC(=O)CNc1n[n+]([O-])c2cc3c(cc2[n+]1[O-])CCC3
COMPARATOR: >
NUMBER: 1.2

MOLECULE: COC(=O)CCc1n[n+]([O-])c2ccccc2[n+]1[O-]
COMPARATOR: =
NUMBER: 1.31

MOLECULE: CCOC(=O)CCCNc1n[n+]([O-])c2ccccc2[n+]1[O-] [Compound 11b]
COMPARATOR: =
NUMBER: 1.10

Source listed as paper PMC6680510.
